target_system: human TRPV1 (Homo sapiens (Human), UniProt Q8NER1)
Sequence (Q8NER1 whole entry): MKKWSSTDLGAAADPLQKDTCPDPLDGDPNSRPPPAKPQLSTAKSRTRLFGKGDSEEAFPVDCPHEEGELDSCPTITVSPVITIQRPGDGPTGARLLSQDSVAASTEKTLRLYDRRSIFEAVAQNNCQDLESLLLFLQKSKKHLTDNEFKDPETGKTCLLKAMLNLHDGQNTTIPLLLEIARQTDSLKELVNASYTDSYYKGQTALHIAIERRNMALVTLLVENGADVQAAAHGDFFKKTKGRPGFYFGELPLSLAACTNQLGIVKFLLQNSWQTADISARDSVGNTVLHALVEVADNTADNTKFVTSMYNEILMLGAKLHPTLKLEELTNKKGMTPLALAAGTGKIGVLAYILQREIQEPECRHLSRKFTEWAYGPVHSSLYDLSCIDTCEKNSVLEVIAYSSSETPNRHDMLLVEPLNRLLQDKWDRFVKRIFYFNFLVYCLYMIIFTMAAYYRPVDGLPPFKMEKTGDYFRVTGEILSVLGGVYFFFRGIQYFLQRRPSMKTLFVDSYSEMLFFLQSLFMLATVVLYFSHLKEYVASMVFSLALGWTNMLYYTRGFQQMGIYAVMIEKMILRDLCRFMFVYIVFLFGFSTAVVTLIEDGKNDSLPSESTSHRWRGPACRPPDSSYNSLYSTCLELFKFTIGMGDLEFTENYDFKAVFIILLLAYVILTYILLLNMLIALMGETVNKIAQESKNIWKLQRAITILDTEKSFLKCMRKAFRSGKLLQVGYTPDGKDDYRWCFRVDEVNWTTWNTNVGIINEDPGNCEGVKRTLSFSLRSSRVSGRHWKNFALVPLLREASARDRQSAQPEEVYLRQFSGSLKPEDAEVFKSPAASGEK
assay_comment: Capsaicin Activation Assay (intracellular Ca2+, FLIPR)
test_conditions: recombinant HEK293 cells expressing hTRPV1, 50 nM capsaicin
For each of the compounds below, state its IC50.
Could you kindly put the unit after your number?

So what's the measured IC50 for this one? `CCC1(CC)C[C@@H](NC(=O)Nc2ccc3c(c2)NC(=O)N(C)C3)c2cccc(F)c2O1`
91 nM

So what's the measured IC50 for this one? CN1C(=O)NCc2c(NC(=O)N[C@@H]3CC(C)(C(F)F)Oc4cc(Cl)ccc43)cccc21 (some centres unmarked)
23 nM

So what's the measured IC50 for this one? `O=C1CCc2ccc(NC(=O)N[C@H]3CC4(CCC4)Oc4ccc(F)cc43)cc2N1`
86 nM

So what's the measured IC50 for this one? `CN1Cc2ccc(NC(=O)N[C@@H]3CC(C)(C)Oc4cc(F)ccc43)cc2NC1=O`
120 nM

So what's the measured IC50 for this one? `CN1C(=O)NCc2c(NC(=O)N[C@@H]3CC(CF)(CF)Oc4c(F)cc(F)cc43)cccc21`
170 nM

So what's the measured IC50 for this one? `CN1C(=O)CCc2ccc(NC(=O)N[C@@H]3C[C@@](C)(C(F)(F)F)Oc4ccccc43)cc21`
67 nM

So what's the measured IC50 for this one? `C[C@]1(CF)C[C@@H](NC(=O)Nc2ccc3c(c2)NC(=O)CC3)c2ccc(Cl)cc2O1`
130 nM

So what's the measured IC50 for this one? `CCC1(CC)C[C@@H](NC(=O)Nc2ccc3c(c2)NC(=O)N(CCO)C3)c2cc(F)ccc2O1`
45 nM

* * *

target_system: human TRPV1 (Homo sapiens (Human))
assay_comment: Acid Activation Assay (pH 5.0, intracellular Ca2+, FLIPR)
Format: cell-based
test_conditions: percentage of the maximal pH 5.0-induced response remaining; recombinant HEK293 hTRPV1 cells; maximum concentration tested 37.5 μM
Procedure: Dulbecco's modified Eagle's medium (DMEM) with 4.5 m g/mL D-glucose, fetal bovine serum, L-glutamine, and 2-morpholinoethanesulfonic acid (MES) were purchased from Sigma-Aldrich Co. (St. Louis, Mo.). […] The functional activity of compounds at the TRPV1 receptor was determined by measurement of intracellular Ca^2+ levels ([Ca^2+]i) using the Fluorescence Imaging Plate Reader (FLIPR)TETRA®. […] The intensity of the fluorescence was captured and digitally transferred to an interfaced PC. […]
metric_name: human TRPV1 H^+ (max % remain) (%)
Give the quantity in %, number only.

# value lookup — system human TRPV1 (Homo sapiens (Human)), readout human TRPV1 H^+ (max % remain), item O=C(Nc1ccc2c(c1)NC(=O)C(N1CCCOCC1)C2)N[C@@H]1CC(CF)(CF)Oc2cc(Cl)ccc21 (some centres unmarked)
36

# value lookup — system human TRPV1 (Homo sapiens (Human)), readout human TRPV1 H^+ (max % remain), item `O=C1COc2ccc(NC(=O)N[C@@H]3CC4(CCC4)Oc4ccc(F)cc43)cc2N1`
104

# value lookup — system human TRPV1 (Homo sapiens (Human)), readout human TRPV1 H^+ (max % remain), item `CCCC1(CCC)C[C@@H](NC(=O)Nc2ccc3c(c2)NC(=O)CO3)c2cc(F)ccc2O1`
113

# value lookup — system human TRPV1 (Homo sapiens (Human)), readout human TRPV1 H^+ (max % remain), item `CN1C(=O)CCc2ccc(NC(=O)N[C@@H]3CCc4cc(F)ccc43)cc21`
27

# value lookup — system human TRPV1 (Homo sapiens (Human)), readout human TRPV1 H^+ (max % remain), item `CCC1(CC)C[C@@H](NC(=O)Nc2ccc3c(c2)NC(=O)N(C)C3)c2ccc(Cl)c(Cl)c2O1`
29

# value lookup — system human TRPV1 (Homo sapiens (Human)), readout human TRPV1 H^+ (max % remain), item `CN1Cc2ccc(NC(=O)N[C@@H]3CCOc4ccccc43)cc2NC1=O`
62

# value lookup — system human TRPV1 (Homo sapiens (Human)), readout human TRPV1 H^+ (max % remain), item `C[C@]1(C(F)F)C[C@@H](NC(=O)Nc2ccc3c(c2)NC(=O)CC3)c2ccccc2O1`
28

# value lookup — system human TRPV1 (Homo sapiens (Human)), readout human TRPV1 H^+ (max % remain), item `CCCC1(CCC)C[C@@H](NC(=O)Nc2ccc3c(c2)N(C)C(=O)CC3)c2cc(F)ccc2O1`
54

* * *

target_system: human TRPV1 (Homo sapiens (Human))
assay_comment: Capsaicin Activation Assay (intracellular Ca2+, FLIPR)
test_conditions: recombinant HEK293 cells expressing hTRPV1, 50 nM capsaicin
For each of the compounds below, state its IC50.

So what's the measured IC50 for this one? C[C@@]1(C(F)F)C[C@@H](NC(=O)Nc2ccc3c(c2)NC(=O)CO3)c2ccc(Cl)cc2O1 [Example 322]
46 nM

So what's the measured IC50 for this one? O=C(Nc1cccc2[nH]c(=O)ccc12)N[C@@H]1CC(CF)(CF)Oc2cc(Cl)ccc21 [Example 99]
91 nM

So what's the measured IC50 for this one? CCC1(CC)C[C@@H](NC(=O)Nc2cccc3c2CNC(=O)N3C)c2ccc(C(F)(F)F)cc2O1 [Example 144]
130 nM

So what's the measured IC50 for this one? CCC1(CC)C[C@@H](NC(=O)Nc2cccc3c2CNC(=O)N3C)c2ccccc2O1 [Example 140]
11 nM

So what's the measured IC50 for this one? CN1C(=O)NCc2c(NC(=O)N[C@@H]3C[C@@](C)(C(F)F)Oc4ccccc43)cccc21 [Example 13]
53 nM

So what's the measured IC50 for this one? CCC1(CC)C[C@@H](NC(=O)Nc2ccc3c(c2)NC(=O)N(C)C3)c2ccc(Cl)cc2O1 [Example 181]
210 nM

So what's the measured IC50 for this one? CC1(C)C[C@H](NC(=O)Nc2ccc3c(c2)NC(=O)N(CCO)C3)c2cc(F)ccc2O1 [Example 57]
380 nM

So what's the measured IC50 for this one? CN1Cc2ccc(NC(=O)N[C@@H]3C[C@](C)(C(F)F)Oc4ccccc43)cc2NC1=O [Example 207]
330 nM

So what's the measured IC50 for this one? CCC1(CC)C[C@@H](NC(=O)Nc2cccc3c2ccc(=O)n3C)c2ccc(Cl)cc2O1 [Example 70]
29 nM

So what's the measured IC50 for this one? CN1Cc2ccc(NC(=O)N[C@@H]3CC(CF)(CF)Oc4ccccc43)cc2NC1=O [Example 197]
1100 nM

So what's the measured IC50 for this one? CN1Cc2ccc(NC(=O)N[C@@H]3CC(CF)(CF)Oc4cc(F)ccc43)cc2NC1=O [Example 209]
290 nM

So what's the measured IC50 for this one? O=C1COc2ccc(NC(=O)N[C@H]3CC4(CCC4)Oc4ccc(F)cc43)cc2N1 [Example 122]
> 38000 nM

So what's the measured IC50 for this one? CN1C(=O)CCc2ccc(NC(=O)N[C@@H]3CC(CF)(CF)Oc4c3ccc(Cl)c4F)cc21 [Example 273]
210 nM

So what's the measured IC50 for this one? O=C1COc2ccc(NC(=O)N[C@@H]3CCOc4cc(C(F)(F)F)ccc43)cc2N1 [Example 121]
> 38000 nM

So what's the measured IC50 for this one? C[C@]1(C(F)F)C[C@@H](NC(=O)Nc2ccc3c(c2)NC(=O)CO3)c2ccc(Cl)cc2O1 [Example 321]
21 nM

So what's the measured IC50 for this one? COCCN(C)C1Cc2ccc(NC(=O)N[C@@H]3CC(C)(C)Oc4cc(F)ccc43)cc2NC1=O (stereo partly shown) [Example 305]
2000 nM

* * *

target_system: human TRPV1 (Homo sapiens (Human), UniProt Q8NER1)
assay_comment: Capsaicin Activation Assay (intracellular Ca2+, FLIPR)
test_conditions: recombinant HEK293 cells expressing hTRPV1, 50 nM capsaicin
metric_name: pIC50
// pIC50 is dimensionless: -log10 of concentration (M)

So what's the measured pIC50 for this one? CN1C(=O)NCc2c(NC(=O)N[C@@H]3CC(CF)(CF)Oc4c(Cl)cccc43)cccc21 [Example 148]
7.00

So what's the measured pIC50 for this one? CCC1(CC)C[C@@H](NC(=O)Nc2ccc3c(c2)NC(=O)CC3)c2ccc(Cl)c(Cl)c2O1 [Example 226]
7.00

So what's the measured pIC50 for this one? CN1C(=O)CCc2ccc(NC(=O)N[C@H]3CC4(CCC4)Oc4ccc(F)cc43)cc21 [Example 286]
6.59

So what's the measured pIC50 for this one? CN1C(=O)NCc2c(NC(=O)N[C@@H]3C[C@@](C)(C(F)(F)F)Oc4ccccc43)cccc21 [Example 165]
8.52

So what's the measured pIC50 for this one? CCC1(CC)C[C@@H](NC(=O)Nc2ccc3c(c2)N(C)C(=O)CC3)c2ccc(C(F)(F)F)cc2O1 [Example 261]
6.66

So what's the measured pIC50 for this one? O=C1COc2c(cccc2NC(=O)N[C@@H]2CC(CF)(CF)Oc3cc(Cl)ccc32)N1 [Example 323]
8.35

So what's the measured pIC50 for this one? O=C1CCc2ccc(NC(=O)N[C@@H]3CC(CF)(CF)Oc4cc(C(F)(F)F)ccc43)cc2N1 [Example 320]
7.92

So what's the measured pIC50 for this one? CC1(C)C[C@@H](NC(=O)Nc2ccc3c(c2)NC(=O)CC3)c2ccc(C(F)(F)F)nc2O1 [Example 247]
7.42

So what's the measured pIC50 for this one? CCC1(CC)C[C@@H](NC(=O)Nc2ccc3c(c2)NC(=O)N(C)C3)c2ccccc2O1 [Example 178]
7.14

So what's the measured pIC50 for this one? CCC1(CC)C[C@@H](NC(=O)Nc2ccc3c(c2)NC(=O)CO3)c2ccc(Cl)c(Cl)c2O1 [Example 105]
6.34

So what's the measured pIC50 for this one? CC1(C)C[C@@H](NC(=O)Nc2ccc3c(c2)NC(=O)C(N2CCOCC2)C3)c2ccc(F)cc2O1 (stereo partly shown) [Example 301]
5.89

So what's the measured pIC50 for this one? CCC1(CC)C[C@@H](NC(=O)Nc2ccc3c(c2)N(C)C(=O)CC3)c2ccccc2O1 [Example 260]
6.89

So what's the measured pIC50 for this one? C[C@]1(C(F)(F)F)C[C@@H](NC(=O)Nc2ccc3c(c2)NC(=O)CO3)c2ccccc2O1 [Example 126]
7.24

So what's the measured pIC50 for this one? CCC1(CC)C[C@@H](NC(=O)Nc2ccc3c(c2)NC(=O)N(C)C3)c2ccc(OC(F)(F)F)cc2O1 [Example 191]
6.35

So what's the measured pIC50 for this one? CN1Cc2ccc(NC(=O)N[C@@H]3C[C@@](C)(C(F)F)Oc4ccccc43)cc2NC1=O [Example 171]
5.89

So what's the measured pIC50 for this one? CN1C(=O)CCc2ccc(NC(=O)N[C@@H]3CCOc4ccccc43)cc21 [Example 258]
6.77

FYI, the data here is from patent US8969325B2.
